# Tested on: CCRIS mutagenicity, Ames/micronucleus/aberration tests
# Protocol summary: CCRIS mutagenicity studies
# Experimental setup: Test System: AMES SALMONELLA TYPHIMURIUM; Strain/Indicator: TA100; Metabolic Activation: NONE; Method: STANDARD PLATE
# Source text: The CCRIS database contains chemical records with carcinogenicity, mutagenicity, tumor promotion, and tumor inhibition test results. It was developed by the National Cancer Institute (NCI). Data are derived from studies cited in primary journals, current awareness tools, NCI reports, and other sources. Test results have been reviewed by experts in carcinogenesis and mutagenesis. CCRIS provides historical information from the years 1985 - 2011. It is no longer updated. […]
Activity calls are given as the source filed them. No rule for the calls is given here.
Outcome codes: y (active), n (inactive)

| Molecule | Assigned label |
| --- | --- |
| O=c1oc2cc([N+](=O)[O-])ccc2c2ccccc12 | y |
| CBr | y |
| Cl/C=C/C[N+]12CN3CN(CN(C3)C1)C2 | n |
| Clc1ccc(N=Nc2ccc(Cl)c(Cl)c2)cc1Cl | n |
| CC1C(C)(C)C2=C(C(=O)CCC2)C1(C)C (stereo unspecified) | n |
| CCOCC(O)COc1ccc(NC(=O)CC[S+](C)C)cc1 (stereo unspecified) | n |
| O=C/C(=C(/Cl)C(=O)O)C(Cl)Cl | y |
| [N-]=[N+]=CC(=O)OC[C@H](N)C(=O)O | y |
| COc1cc([C@@H]2c3cc4c(cc3[C@H](O)[C@H]3COC(=O)[C@H]23)OCO4)cc(OC)c1OC | n |
| COc1cc(O)c2c(=O)oc3cc(O)cc(C)c3c2c1 | n |
| N#Cc1cc(Br)c(O)c(Br)c1 | n |
| COc1nsc2c(OCC3CO3)cccc12 (stereo unspecified) | y |
| N#CCCNCCC#N | n |
| CN1CCN(c2ccc3nc(-c4ccc5nc(-c6ccc(N(CCCl)CCCl)cc6)[nH]c5c4)[nH]c3c2)CC1 | n |
| N#CCCN | n |
| CCOP(=O)(OCC)Oc1ccc([N+](=O)[O-])cc1 | n |
| Cc1ccc2ccc3ccc(C)cc3c2c1 | n |
| NC[C@H]1CCCN1.O=C([O-])C1(C(=O)[O-])CCC1.[Pt+2] | n |
| C[n+]1ccn(CCS(C)(=O)=O)c1/C=N/O | n |
| COP(=O)(OC)SC | n |
| CC(=O)CC(=O)CCC(=O)O | n |
| CNC(=O)N(C)C(=O)ON | y |
| Nc1ccccc1-c1ccccc1 | n |
| C=C(C)C(=O)OC(C)(C)C | n |
| CC(=O)OCCN(CCOC(C)=O)c1ccc([N+](=O)[O-])c2c(NCCCN(C)C)c3ccccc3nc12 | y |
| Cc1ccc(-c2nc(-c3ccc(C)cc3C)[nH]c2-c2ccc(C)cc2)cc1 | y |

====

# System: CCRIS mutagenicity, Ames/micronucleus/aberration tests
# Protocol summary: CCRIS mutagenicity studies
# Experimental setup: Test System: AMES SALMONELLA TYPHIMURIUM; Strain/Indicator: TA100; Metabolic Activation: NONE; Method: PREINCUBATION
The source made the active and inactive calls. How the calls were made is not given here.
Outcomes: 1 (active), 0 (inactive)

| Compound | Assigned label |
| --- | --- |
| CCCCCCCCC/C=C/CC1CC(=O)OC1=O (configuration not stated) | 0 |
| O=C(O)/C=C(\CCl)C(Cl)Cl | 1 |
| Nc1cc(S(=O)(=O)O)c2cccc(S(=O)(=O)O)c2c1 | 0 |
| COc1cccc(C(=O)CBr)c1 | 0 |
| COc1cccc2c1C(=O)c1c(O)c3c(c(O)c1C2=O)C[C@@](O)(C(=O)CO)C[C@@H]3O[C@H]1C[C@H](N)[C@H](O)[C@H](C)O1 | 0 |
| CC(=O)O[C@]1(C(C)=O)CC[C@H]2[C@@H]3C4OC4(Cl)C4=CC(=O)[C@@H]5C[C@@H]5[C@]4(C)[C@H]3CC[C@@]21C (some centres not stated) | 0 |
| O=c1c2[nH]c3ccccc3c2nnn1/N=C/c1ccc([N+](=O)[O-])cc1 | 1 |
| ClC(Cl)(Cl)CC1CO1 (configuration not stated) | 1 |
| CC(=O)Nc1ccc(/C=N/n2nnc3c([nH]c4ccccc43)c2=O)cc1 | 1 |
| ClC1=C(Cl)[C@]2(Cl)[C@@H]3[C@H]4C[C@H]([C@@H]5O[C@H]45)[C@@H]3[C@@]1(Cl)C2(Cl)Cl | 0 |
| CC(=O)/C=C/c1ccc2c(c1)OCO2 | 0 |
| CC1=C(O)C(=O)CO1 | 1 |

====

# System: CCRIS mutagenicity, Ames/micronucleus/aberration tests
# Protocol summary: CCRIS mutagenicity studies
# Experimental setup: Test System: AMES SALMONELLA TYPHIMURIUM; Strain/Indicator: TA98; Metabolic Activation: RAT, LIVER, S-9, AROCLOR 1254; Method: STANDARD PLATE
The source made the active and inactive calls. How the calls were made is not given here.
Assay readout: mutagenic call

| Compound | Value reported |
| --- | --- |
| CCN(CC[N+](C)(C)C)c1ccc(N=Nc2ccc([N+](=O)[O-])cc2Cl)cc1 | active; positive |
| O=C(c1ccc(-c2ccccc2)cc1)C1OC1c1ccccc1 (centres undefined) | inactive; negative |
| O=[N+]([O-])c1ccc2cc3c(cc2c1)[C@H](O)[C@@H](O)C=C3 | active; positive |
| CCOP(=O)(OCC)O/C(=C\Cl)c1ccc(Cl)cc1Cl | inactive; negative |

====

# Test system: CCRIS mutagenicity, Ames/micronucleus/aberration tests
# Protocol summary: CCRIS mutagenicity studies
# Experimental setup: Test System: MOUSE LYMPHOMA; Strain/Indicator: L5178Y (TK+/TK-); Metabolic Activation: NONE; Method: SUSPENSION/PLATE
Activity calls are given as the source filed them. No rule for the calls is given here.
Outcomes: label 1 = active, label 0 = inactive

| Compound | Study system | Assigned label |
| --- | --- | --- |
| O=S(=O)(C(Cl)(Cl)Cl)C(Cl)(Cl)Cl | CCRIS mutagenicity, Ames/micronucleus/aberration tests | label 0 |
| O=P(O)(O)OC1C(OP(=O)(O)O)C(OP(=O)(O)O)C(OP(=O)(O)O)C(OP(=O)(O)O)C1OP(=O)(O)O (stereo not given) | CCRIS mutagenicity, Ames/micronucleus/aberration tests | label 0 |
| Cl | CCRIS mutagenicity, Ames/micronucleus/aberration tests | label 0 |
| O=c1[nH]cnc2[nH]ncc12 | CCRIS mutagenicity, Ames/micronucleus/aberration tests | label 0 |
| C1CC[C@H]2O[C@H]2C1 | CCRIS mutagenicity, Ames/micronucleus/aberration tests | label 1 |
| [N-]=[N+]=[N-] | CCRIS mutagenicity, Ames/micronucleus/aberration tests | label 1 |
| C/C([O-])=C(/N=Nc1cc(S(N)(=O)=O)ccc1[O-])C(=O)Nc1ccccc1.C/C([O-])=C(\N=Nc1cc(S(N)(=O)=O)ccc1[O-])C(=O)Nc1ccccc1.[Co+2] | CCRIS mutagenicity, Ames/micronucleus/aberration tests | label 0 |
| O=C1CCC(=O)N1Br | CCRIS mutagenicity, Ames/micronucleus/aberration tests | label 1 |
| CCN(CC[N+](C)(C)C)c1ccc(N=Nc2ccc([N+](=O)[O-])cc2Cl)cc1 | CCRIS mutagenicity, Ames/micronucleus/aberration tests | label 0 |
| Cl/C=C/C[N+]12CN3CN(CN(C3)C1)C2 | CCRIS mutagenicity, Ames/micronucleus/aberration tests | label 1 |
| C=C[Si](C)(C)CCl | CCRIS mutagenicity, Ames/micronucleus/aberration tests | label 0 |
| O=CC=O | CCRIS mutagenicity, Ames/micronucleus/aberration tests | label 1 |
| O=C1c2ccc3nc(-c4ccccc4)sc3c2C(=O)c2ccc3nc(-c4ccccc4)sc3c21 | CCRIS mutagenicity, Ames/micronucleus/aberration tests | label 0 |
| ClC1=C(Cl)[C@]2(Cl)[C@@H]3[C@H]4C[C@H]([C@@H]5O[C@H]45)[C@@H]3[C@@]1(Cl)C2(Cl)Cl | CCRIS mutagenicity, Ames/micronucleus/aberration tests | label 0 |
| O=C1CCO1 | CCRIS mutagenicity, Ames/micronucleus/aberration tests | label 1 |
| CS(C)=O | CCRIS mutagenicity, Ames/micronucleus/aberration tests | label 1 |
| CC(C)CCCCCCCOC(=O)c1ccccc1C(=O)OCCCCCCCC(C)C | CCRIS mutagenicity, Ames/micronucleus/aberration tests | label 0 |
| C1COCCO1 | CCRIS mutagenicity, Ames/micronucleus/aberration tests | label 0 |
| O=c1cccccc1O | CCRIS mutagenicity, Ames/micronucleus/aberration tests | label 1 |
| OCCO | CCRIS mutagenicity, Ames/micronucleus/aberration tests | label 0 |

====

# System: CCRIS mutagenicity, Ames/micronucleus/aberration tests
# Protocol summary: CCRIS mutagenicity studies
# Experimental setup: Test System: AMES SALMONELLA TYPHIMURIUM; Strain/Indicator: TA97; Metabolic Activation: HAMSTER, LIVER, S-9, AROCLOR 1254 (10%); Method: PREINCUBATION
Calls of active or inactive are those of the source. How the calls were made is not given here.
Possible outcomes: active, inactive

| Test smiles | Assigned label |
| --- | --- |
| Nc1ccccc1-c1ccccc1 | inactive |
| O=[N+]([O-])c1ccc(O)c([N+](=O)[O-])c1 | inactive |
| Cc1ccc(O)c(N)c1 | inactive |
| [O-][Br+2]([O-])O | inactive |
| Nc1ccc(Oc2ccc(N)cc2)cc1 | active |
| Cc1ccc(S(=O)(=O)NC(=O)NN2CCCCCC2)cc1 | inactive |
| O=C(O)CNCP(=O)(O)O | inactive |
| OCCBr | inactive |
| COc1ccc(N)cc1N | active |
| c1ccc2n[nH]nc2c1 | inactive |
| O=C1c2ccccc2C(=O)C1c1ccc2ccccc2n1 | inactive |
